target: LGR6 (Homo sapiens); construct: purchased Promega (in-house HiBiT-GPCR construct library, NanoBRET); assay: NanoBRET screen HiBiT-LGR6 in HEK293; assay type: binding; conditions: LGR6; tracer 0.1μM
Sequence (Q9HBX8 25-967): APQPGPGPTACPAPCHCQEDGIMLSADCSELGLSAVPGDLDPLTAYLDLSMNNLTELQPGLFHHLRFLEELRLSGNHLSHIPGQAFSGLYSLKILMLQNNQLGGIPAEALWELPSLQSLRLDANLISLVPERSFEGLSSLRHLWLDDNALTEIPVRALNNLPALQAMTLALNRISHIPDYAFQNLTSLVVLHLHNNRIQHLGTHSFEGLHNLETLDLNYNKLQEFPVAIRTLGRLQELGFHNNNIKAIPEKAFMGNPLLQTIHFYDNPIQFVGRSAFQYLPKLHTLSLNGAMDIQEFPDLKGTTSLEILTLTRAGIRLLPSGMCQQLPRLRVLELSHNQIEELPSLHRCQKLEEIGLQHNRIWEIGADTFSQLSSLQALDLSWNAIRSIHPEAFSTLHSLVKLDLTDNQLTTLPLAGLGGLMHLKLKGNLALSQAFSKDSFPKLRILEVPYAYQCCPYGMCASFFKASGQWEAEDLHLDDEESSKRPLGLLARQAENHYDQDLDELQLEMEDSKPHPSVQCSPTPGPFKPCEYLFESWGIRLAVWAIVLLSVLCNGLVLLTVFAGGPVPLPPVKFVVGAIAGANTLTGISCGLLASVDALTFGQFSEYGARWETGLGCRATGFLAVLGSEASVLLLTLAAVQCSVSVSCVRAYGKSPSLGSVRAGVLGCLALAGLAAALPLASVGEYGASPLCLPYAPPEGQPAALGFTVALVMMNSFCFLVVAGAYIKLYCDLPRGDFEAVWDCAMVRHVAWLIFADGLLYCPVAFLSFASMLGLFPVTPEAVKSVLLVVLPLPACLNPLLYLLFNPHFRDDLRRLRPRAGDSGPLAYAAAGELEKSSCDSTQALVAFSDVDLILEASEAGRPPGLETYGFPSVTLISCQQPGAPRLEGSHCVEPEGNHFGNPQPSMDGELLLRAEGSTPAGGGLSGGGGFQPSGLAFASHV

{"compoundString": "CC(C)N(CC[C@H](c1ccccc1)c1cc(CCNC(=O)CCOCCOCCOCCOCCNC(=O)CCc2ccc3n2[B-](F)(F)[N+]2=C(c4ccc[nH]4)C=CC2=C3)ccc1O)C(C)C", "NanoBRET Fold Response": 1.39}
{"compoundString": "O=C(CCOCCOCCOCCOCCNC(=O)CCc1ccc2n1[B-](F)(F)[N+]1=C(c3ccc[nH]3)C=CC1=C2)NCCCN1CCN(C2=Nc3ccccc3Oc3ccc(Cl)cc32)CC1", "NanoBRET Fold Response": 0.91}
{"compoundString": "CCCn1c(=O)c2[nH]c(-c3ccc(OCC(=O)NCCNC(=O)CCOCCNC(=O)c4ccc(CNC(=O)CCc5ccc6n5[B-](F)(F)[N+]5=C(c7ccc[nH]7)C=CC5=C6)cc4)cc3)nc2n(CCC)c1=O", "NanoBRET Fold Response": 0.99}

---

target: OXER1 (Homo sapiens); construct: purchased Promega (in-house HiBiT-GPCR construct library, NanoBRET); experiment: NanoBRET screen HiBiT-OXER1 in HEK293; format: binding; details: OXER1; tracer 0.1μM
Sequence (Q8TDS5 whole entry): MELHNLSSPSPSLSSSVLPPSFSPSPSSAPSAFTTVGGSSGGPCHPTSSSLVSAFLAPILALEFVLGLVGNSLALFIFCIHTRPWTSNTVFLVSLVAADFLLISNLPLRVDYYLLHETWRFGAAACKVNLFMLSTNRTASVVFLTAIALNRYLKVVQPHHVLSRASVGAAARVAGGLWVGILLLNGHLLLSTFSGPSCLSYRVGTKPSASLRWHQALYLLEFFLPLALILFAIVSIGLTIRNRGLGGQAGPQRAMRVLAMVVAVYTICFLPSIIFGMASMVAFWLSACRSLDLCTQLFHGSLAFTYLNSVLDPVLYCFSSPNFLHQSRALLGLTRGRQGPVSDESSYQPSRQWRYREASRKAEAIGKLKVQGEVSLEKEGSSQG
// returns condition not met unless NanoBRET Fold Response is strictly below 1, in which case condition met

{"molecule": "N#CN=C(NCCCOc1cccc(CN2CCCCC2)c1)NCCNC(=O)CCOCCOCCOCCOCCNC(=O)CCc1ccc2n1[B-](F)(F)[N+]1=C(c3ccc[nH]3)C=CC1=C2", "classLabel": "condition not met"}
{"molecule": "CC(C)N(CC[C@H](c1ccccc1)c1cc(CCNC(=O)CCOCCOCCOCCOCCNC(=O)CCc2ccc3n2[B-](F)(F)[N+]2=C(c4ccc[nH]4)C=CC2=C3)ccc1O)C(C)C", "classLabel": "condition met"}
{"molecule": "Cc1cc2c(s1)Nc1ccccc1N=C2N1CCN(CCCNC(=O)CCOCCOCCOCCOCCNC(=O)CCc2ccc3n2[B-](F)(F)[N+]2=C(c4ccc[nH]4)C=CC2=C3)CC1", "classLabel": "condition met"}
{"molecule": "O=C(CCc1ccc2n1[B-](F)(F)[N+]1=C(c3ccc[nH]3)C=CC1=C2)NCc1ccc(C(=O)NCCOCCC(=O)N[C@@H]2CC[C@@]3(O)[C@H]4Cc5ccc(O)c6c5[C@@]3(CCN4CC3CC3)[C@H]2O6)cc1 [Naltrexone-3-NB590]", "classLabel": "condition met"}
{"molecule": "COc1ccccc1N1CCN(CCCCN2C(=O)c3ccc(CNC(=O)CCOCCOCCOCCOCCNC(=O)CCc4ccc5n4[B-](F)(F)[N+]4=C(c6ccc[nH]6)C=CC4=C5)cc3C2=O)CC1", "classLabel": "condition met"}

---

target: RXFP2 (Homo sapiens, UniProt Q8WXD0); construct: purchased Promega (in-house HiBiT-GPCR construct library, NanoBRET); assay: NanoBRET screen HiBiT-RXFP2 in HEK293; assay type: binding; details: RXFP2; tracer 0.1μM
Sequence (Q8WXD0 whole entry): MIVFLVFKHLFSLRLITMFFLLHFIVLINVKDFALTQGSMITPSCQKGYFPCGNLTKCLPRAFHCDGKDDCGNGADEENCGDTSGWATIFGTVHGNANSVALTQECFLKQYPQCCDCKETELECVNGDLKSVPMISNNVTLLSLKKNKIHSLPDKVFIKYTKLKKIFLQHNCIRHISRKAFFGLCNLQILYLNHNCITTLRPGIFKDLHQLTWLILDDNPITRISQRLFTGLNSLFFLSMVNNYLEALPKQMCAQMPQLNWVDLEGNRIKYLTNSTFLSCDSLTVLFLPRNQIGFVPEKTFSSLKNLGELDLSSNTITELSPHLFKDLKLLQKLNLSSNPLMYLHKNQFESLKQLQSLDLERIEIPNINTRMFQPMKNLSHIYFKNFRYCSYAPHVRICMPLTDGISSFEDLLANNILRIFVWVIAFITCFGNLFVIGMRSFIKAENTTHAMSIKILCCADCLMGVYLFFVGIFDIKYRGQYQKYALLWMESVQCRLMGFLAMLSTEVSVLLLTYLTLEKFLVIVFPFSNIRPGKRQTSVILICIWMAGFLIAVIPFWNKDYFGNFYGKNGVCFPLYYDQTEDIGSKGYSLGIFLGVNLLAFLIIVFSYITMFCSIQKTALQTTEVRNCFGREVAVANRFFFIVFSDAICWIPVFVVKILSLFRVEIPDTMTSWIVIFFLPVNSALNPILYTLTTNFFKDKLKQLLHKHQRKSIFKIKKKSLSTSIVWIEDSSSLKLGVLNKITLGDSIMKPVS
Measured NanoBRET Fold Response by item
attributeMeasured: NanoBRET Fold Response

{"compoundString": "N#CN=C(NCCCOc1cccc(CN2CCCCC2)c1)NCCNC(=O)CCOCCOCCOCCOCCNC(=O)CCc1ccc2n1[B-](F)(F)[N+]1=C(c3ccc[nH]3)C=CC1=C2", "studyTarget": "RXFP2 (Homo sapiens, UniProt Q8WXD0)", "attributeMeasured": "NanoBRET Fold Response", "numericReadout": 0.83}
{"compoundString": "CC(C)N(CC[C@H](c1ccccc1)c1cc(CCNC(=O)c2ccc(CNC(=O)CCc3ccc4n3[B-](F)(F)[N+]3=C(c5ccc[nH]5)C=CC3=C4)cc2)ccc1O)C(C)C", "studyTarget": "RXFP2 (Homo sapiens, UniProt Q8WXD0)", "attributeMeasured": "NanoBRET Fold Response", "numericReadout": 0.34}
{"compoundString": "COc1ccccc1N1CCN(CCCCN2C(=O)c3ccc(CNC(=O)CCOCCOCCOCCOCCNC(=O)CCc4ccc5n4[B-](F)(F)[N+]4=C(c6ccc[nH]6)C=CC4=C5)cc3C2=O)CC1", "studyTarget": "RXFP2 (Homo sapiens, UniProt Q8WXD0)", "attributeMeasured": "NanoBRET Fold Response", "numericReadout": 0.78}
